Where these numbers come from: patent US20250205385A1

# protocol_details: Equilibrium solubility of gestodene bulk drug in water and normal saline, before and after micronization
# Type: physicochemical
# run_conditions: normal saline, saline or isotonic, thermodynamic from solid, drug particle size 2.81 μm (micronized); normal saline (NS); shaken 72 hours
quantity_name: solubility at 72 h

Exercise: Query (compound): C#C[C@]1(O)C=C[C@H]2[C@@H]3CCC4=CC(=O)CC[C@@H]4[C@H]3CC[C@@]21CC ; field requested: solubility at 72 h
Solution: 2.71 µg/mL

====

# protocol_details: Equilibrium solubility of gestodene bulk drug in water and normal saline, before and after micronization
# Format: physicochemical
# run_conditions: normal saline, saline or isotonic, thermodynamic from solid, drug particle size 80.30 μm (unmicronized); normal saline (NS); shaken 72 hours
quantity_name: solubility at 72 h (µg/mL)
Kindly provide the numeric value in µg/mL only, without the unit symbol.

Exercise: Query (compound): C#C[C@]1(O)C=C[C@H]2[C@@H]3CCC4=CC(=O)CC[C@@H]4[C@H]3CC[C@@]21CC ; field requested: solubility at 72 h
Solution: 5.3

====

# protocol_details: Equilibrium solubility of gestodene bulk drug in water and normal saline, before and after micronization
# Assay type: physicochemical
# run_conditions: water or normal saline, thermodynamic from solid, drug particle size 80.30 μm (unmicronized); water; shaken 72 hours
quantity_name: solubility at 72 h (µg/mL)
Kindly provide the numeric value in µg/mL only, without the unit symbol.

Exercise: Query (molecule): C#C[C@]1(O)C=C[C@H]2[C@@H]3CCC4=CC(=O)CC[C@@H]4[C@H]3CC[C@@]21CC ; field requested: solubility at 72 h
Solution: 5.64
